Assay: In vitro biotransformation rate, rainbow trout liver S9 (OECD TG 319)
Assay type: in vitro ADME
Details: in vitro incubation with rainbow trout liver S9; assuming 163 mg S9 protein/g liver
measurement.type: CL (clearance rate)

Input: What CL (clearance rate) value was documented for this molecule, Cc1cc(C(C)(C)c2ccc(O)c(C)c2)ccc1O ?
Output: 4.04 × 10^3 mL/d/g liver

Input: What value of measured CL (clearance rate) is listed for CC(c1ccccc1)(c1ccc(O)cc1)c1ccc(O)cc1 ?
Output: 7.06 × 10^3 mL/d/g liver

Input: Fill in: CL (clearance rate) of CC(C)(c1cc(Br)c(O)c(Br)c1)c1cc(Br)c(O)c(Br)c1 is ___
Output: 1.63 × 10^4 mL/d/g liver

Input: Name the reported CL (clearance rate) value associated with the molecule Oc1ccc(Cc2ccc(O)cc2)cc1
Output: 1.20 × 10^3 mL/d/g liver

Input: Name the recorded CL (clearance rate) for CCC(C)(c1ccc(O)cc1)c1ccc(O)cc1 .
Output: 3.76 × 10^3 mL/d/g liver

Input: Please report the recorded CL (clearance rate) for Oc1ccc(C(c2ccc(O)cc2)(C(F)(F)F)C(F)(F)F)cc1 .
Output: 3.04 × 10^3 mL/d/g liver

Input: Any idea what CL (clearance rate) was measured for Oc1ccc(C2(c3ccc(O)cc3)CCCCC2)cc1 ?
Output: 1.16 × 10^3 mL/d/g liver

###

Experiment: In vivo zebrafish kinetics of BPZ (water exposure, organ concentrations by LC-MS/MS)
Set-up: species or system zebrafish (Danio rerio)
Conditions: female, zebrafish, whole body (calculated), other: water exposure, 10 µg/L, female zebrafish, 48 h; read-out: Mean concentration, whole body (calculated)
measurement.type: concentration at 48 h (ng/g)
Entry rule: numbers only, all in ng/g.

Input: // lookup concentration at 48 h for Oc1ccc(C2(c3ccc(O)cc3)CCCCC2)cc1 [BPZ, bisphenol Z]
Output: 500

###

Assay: In vivo zebrafish kinetics of BPZ (water exposure, organ concentrations by LC-MS/MS)
Parameters: species or system zebrafish (Danio rerio)
Settings: zebrafish, 17 μg/L (water concentration); 17 μg/L in water, female, brain; observed
measurement.type: Cmax

Input: Would you kindly share the measured Cmax for Oc1ccc(C2(c3ccc(O)cc3)CCCCC2)cc1 [BPZ, bisphenol Z] ?
Output: 170 ng/g

###

Experiment: In vivo zebrafish kinetics of BPZ (water exposure, organ concentrations by LC-MS/MS)
Parameters: species or system zebrafish (Danio rerio)
Settings: female, zebrafish, brain, other: exposure via tank water, 10 μg/L (nominal water concentration), female zebrafish, 483 h (depuration phase); read-out: Mean concentration, brain
measurement.type: concentration at 483 h (ng/g)
Just the number please, in ng/g, no unit attached.

Input: I am curious: what concentration at 483 h value has been reported for Oc1ccc(C2(c3ccc(O)cc3)CCCCC2)cc1 [BPZ, bisphenol Z] ?
Output: 14.4

###

Test: In vivo zebrafish kinetics of BPZ (water exposure, organ concentrations by LC-MS/MS)
Design: species or system zebrafish (Danio rerio)
Conditions: zebrafish; 17 μg/L in water, female, whole body; observed
measurement.type: half-life (h)
Write the value in h as a bare number.

Input: Suppose we examine the compound Oc1ccc(C2(c3ccc(O)cc3)CCCCC2)cc1 ; what half-life value has been reported?
Output: 134

###

Assay: In vitro biotransformation rate, rainbow trout liver S9 (OECD TG 319)
Type: in vitro ADME
Details: series 1 (s1)
Procedure: In brief, rainbow trout liver S9 homogenate was preincubated in buffer and cofactors, followed by 120 min of incubation with bisphenol. From each duplicate, 50 μL of subsamples was taken at timepoints 0, 2, 5, 15, 30, 60, 90, and 120 min and mixed with 200 μL of ice-cold methanol. The protocol of the procedure is described further in Section 2. 1042. Biotransformation rate estimation methodology 106Trinova Biochem; Lot: 180216) was pre-incubated at 11°C in K 2HPO4/KH2PO4 buffer […]
For each of the compounds below, state its k (first-order disappearance rate constant).
I only need the number, in h⁻¹, no unit after it.

Input: What value of k (first-order disappearance rate constant) has been reported for the following compound? CC(c1ccccc1)(c1ccc(O)cc1)c1ccc(O)cc1 [BPAP, bisphenol AP]
Output: 1.73

Input: Look up k (first-order disappearance rate constant): O=S(=O)(c1ccc(O)cc1)c1ccc(O)cc1 [BPS, bisphenol S]
Output: 0.41

Input: Form field: reported k (first-order disappearance rate constant) of CC(C)(c1cc(Br)c(O)c(Br)c1)c1cc(Br)c(O)c(Br)c1 [TBBPA, tetrabromobisphenol A]
Output: 3.95

Input: Please look up its k (first-order disappearance rate constant): Oc1ccc(Cc2ccc(O)cc2)cc1 [BPF, bisphenol F]
Output: 0.31

Input: # get_value(readout='k (first-order disappearance rate constant)', item= Oc1ccc(C(c2ccc(O)cc2)(C(F)(F)F)C(F)(F)F)cc1 [BPAF, bisphenol AF] )
Output: 0.73

Input: Item under review: CCC(C)(c1ccc(O)cc1)c1ccc(O)cc1 [BPB, bisphenol B] . Reported k (first-order disappearance rate constant)?
Output: 0.95

Input: Suppose we examine the compound Oc1ccc(C2(c3ccc(O)cc3)CCCCC2)cc1 [BPZ, bisphenol Z] ; what k (first-order disappearance rate constant) value has been reported?
Output: 0.32

Input: Which k (first-order disappearance rate constant) reading was recorded for the compound Cc1cc(C(C)(C)c2ccc(O)c(C)c2)ccc1O [BPC, bisphenol C] ?
Output: 1.03
